molecules and their reported GI50
Test system: SK-MEL-28
MEASUREMENT_DESCRIPTION: NCI tumour cell line growth inhibition, 48 h
Calls of active or inactive are those of the source. No stated cut-off is given here; in the data, active = GI50 up to about 1.1 µM and inactive = higher.

Answered cases to consult:
INSERT INTO results (molecule, tgt, observed_property, test_value) VALUES
  ('COc1cc(O)cc(O)c1C(=O)CC(Cl)(Cl)Cl', 'SK-MEL-28', 'GI50', '> 100 µM (inactive)'),
  ('COc1ccc2c(c1)N1CCc3cc(OC)c(OC)cc3C1C2 (centres undefined)', 'SK-MEL-28', 'GI50', '89.1 µM (inactive)'),
  ('CCOC(=O)C(O)(NC(=O)c1ccccc1F)C(F)(F)F (centres undefined)', 'SK-MEL-28', 'GI50', '> 100 µM (inactive)'),
  ('C[C@H]1CC[C@H]([C@@H](C)[C@H]2[C@@H](O)C[C@H]3[C@@H]4CC[C@H]5C[C@@H](O)CC[C@]5(C)[C@H]4CC[C@]23C)NC1', 'SK-MEL-28', 'GI50', '18.7 µM (inactive)');

Using the record for Cc1c2ccncc2c(C)c2c1[nH]c1ccc(Cl)cc12 , report its GI50.
5.69 µM (inactive)

Ok, now Cc1c2c(Cl)c3c(c(Cl)c2c(C)c2c(Cl)c4c(c(Cl)c12)C(c1ccccc1)(c1ccccc1)C4(c1ccccc1)c1ccccc1)C(c1ccccc1)(c1ccccc1)C3(c1ccccc1)c1ccccc1
> 100 µM (inactive)

Ok, now NC(=S)Nc1c(S(N)(=O)=O)cc(S(N)(=O)=O)c(Cl)c1Cl
> 100 µM (inactive)

Ok, now CN(O)C(=O)Cc1ccccc1
> 100 µM (inactive)

Ok, now COc1ccc(-c2cc(-c3ccccc3)nc3c2CC(=O)Nc2ccccc2-3)cc1OC
> 100 µM (inactive)

---

Tested on: MDA-MB-435
MEASUREMENT_DESCRIPTION: NCI tumour cell line growth inhibition, 48 h
Active and inactive are the calls of the source. No stated cut-off is given here; in the data, active = GI50 up to about 1.1 µM and inactive = higher. Where a SMILES comes first, the peptide text is derived from it. The star is where a group is joined. Cbz = O=C(OCc1ccccc1)*
compounds and their reported GI50

Answered cases to consult:
INSERT INTO measurements (compound, test_value) VALUES
  ('Oc1nc2ccccc2c2oc3ccccc3c12', '> 100 µM (inactive)'),
  ('CC1C(c2ccccc2)NC(c2ccccc2)CC1(N)C#N (stereo not given)', '> 100 µM (inactive)'),
  ('SC1CCCN(Cc2ccccc2)C1 (stereo not given)', '31.6 µM (inactive)'),
  ('Cc1c2c(Cl)c3c(c(Cl)c2c(C)c2c(Cl)c4c(c(Cl)c12)C(c1ccccc1)(c1ccccc1)C4(c1ccccc1)c1ccccc1)C(c1ccccc1)(c1ccccc1)C3(c1ccccc1)c1ccccc1', '> 100 µM (inactive)'),
  ('COc1ccc(NC(=O)CC(=O)N2N=C(C)C(/N=N\c3ccc(S(=O)(=O)c4ccc(/N=N/C5C(=O)N(C(=O)CC(=O)Nc6ccc(OC)cc6)N=C5C)cc4)cc3)C2=O)cc1 (stereo not given)', '> 100 µM (inactive)');

Using the record for CCNCCNc1c2ccccc2nc2ccccc12 , report its GI50.
1.21 µM (inactive)

Ok, now C=C(C)C1CC[C@@](C)(O)[C@H](C#N)C1 (stereo not given in full)
> 100 µM (inactive)

Ok, now Brc1cccc(Nc2ncnc3sc4c(c23)CCC2(C4)OCCO2)c1
28.2 µM (inactive)

Ok, now CCOC(=O)CCC(NC(=O)C(CC(=O)OC)NC(=O)OCc1ccccc1)C(=O)NC(CC(=O)OC)C(=O)NC(CCC(=O)OCC)C(=O)NC(CC(=O)OC)C(=O)NC(CCC(=O)OCC)C(=O)NC(CC(=O)OCC)C(=O)OCC (stereo not given) (Cbz-D(OMe)E(OEt)D(OMe)E(OEt)D(OMe)E(OEt)D(OEt)-OEt; configuration not given here)
> 100 µM (inactive)

Ok, now CCOC(=O)c1cn2c(n1)sc1cc(C)c(C)cc12
20.3 µM (inactive)
